These data points were gathered from PubChem BioAssay AID2060336.

- Test system: 958767-090-R-J1-PDC spheroid growth;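 further: spheroids exposed to agents for 7 days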
- PROCEDURE_SUMMARY: Anticancer human tumor 958767-090-R-J1-PDC patient-derived head and neck squamous carcinoma cell line growth inhibition [IpAb]
- CONDITIONS_USED: second compound 0.316 µM; first compound 0.1 µM; stronger effect = lower value; spheroids with HUVEC and MSC
# note: exactly 50% is not below, so it is not fulfilled; use fulfilled for viability, T/C strictly under it

• Cc1nc(NC(=O)N2CCCC2C(N)=O)sc1-c1ccnc(C(C)(C)C(F)(F)F)c1 (stereo unspecified) + CCN1CCN(Cc2ccc(Nc3ncc(F)c(-c4cc(F)c5nc(C)n(C(C)C)c5c4)n3)nc2)CC1 = fulfilled
• CC(C)n1nc(-c2ccc3oc(N)nc3c2)c2c(N)ncnc21 + CCN1CCN(Cc2ccc(Nc3ncc(F)c(-c4cc(F)c5nc(C)n(C(C)C)c5c4)n3)nc2)CC1 = fulfilled
• C=CCn1c(=O)c2cnc(Nc3ccc(N4CCN(C)CC4)cc3)nc2n1-c1cccc(C(C)(C)O)n1 + CC(C)NCC(C(=O)N1CCN(c2ncnc3c2C(C)CC3O)CC1)c1ccc(Cl)cc1 = fulfilled
• C=CCn1c(=O)c2cnc(Nc3ccc(N4CCN(C)CC4)cc3)nc2n1-c1cccc(C(C)(C)O)n1 + CCN1CCN(Cc2ccc(Nc3ncc(F)c(-c4cc(F)c5nc(C)n(C(C)C)c5c4)n3)nc2)CC1 = fulfilled
• COc1c(OCCCN2CCOCC2)ccc2c3n(c(=NC(=O)c4cnc(N)nc4)nc12)CCN3 + CC(C)NCC(C(=O)N1CCN(c2ncnc3c2C(C)CC3O)CC1)c1ccc(Cl)cc1 = fulfilled
• CCCS(=O)(=O)Nc1ccc(F)c(C(=O)c2c[nH]c3ncc(-c4ccc(Cl)cc4)cc23)c1F + CC(C)NCC(C(=O)N1CCN(c2ncnc3c2C(C)CC3O)CC1)c1ccc(Cl)cc1 = not fulfilled
• Cn1ncc(Cl)c1-c1cc(C(=O)NC(CN)Cc2cccc(F)c2)sc1Cl (stereo unspecified) + CC(C)NCC(C(=O)N1CCN(c2ncnc3c2C(C)CC3O)CC1)c1ccc(Cl)cc1 = not fulfilled
• Cn1ncc(Cl)c1-c1cc(C(=O)NC(CN)Cc2cccc(F)c2)sc1Cl (stereo unspecified) + CCN1CCN(Cc2ccc(Nc3ncc(F)c(-c4cc(F)c5nc(C)n(C(C)C)c5c4)n3)nc2)CC1 = fulfilled

Request: Lab log: compare recorded viability, T/C with 50%; is it strictly lower for Cn1ncnc1[C@H]1c2n[nH]c(=O)c3cc(F)cc(c23)N[C@@H]1c1ccc(F)cc1 + CC(C)NCC(C(=O)N1CCN(c2ncnc3c2C(C)CC3O)CC1)c1ccc(Cl)cc1 ?
Response: not fulfilled
